system: Isogenic HCT-116 colon cancer cell lines; assay: cells; assay type: cell-based; details: Homo sapiens, HCT-116, read-out: Inhibition of cell growth IC50, HCT116 p53 KO, Table 19B; HCT116 p53 KO;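 further: cells grown in 96-well plates in McCoy's 5A medium with 10% FBS, exposed to compound for 4 days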
Reported Endpoint: IC50 (µM)
Use µM as the unit, but write only the number.

INSERT INTO measurements (smiles_entry, unit_of_measure, measured_result) VALUES
  ('CC(C)CC(C)(C)C[C@H]1N[C@@H](C(=O)NCCN2CCOCC2)[C@H](c2cccc(Cl)c2F)[C@@]12C(=O)Nc1cc(F)c(F)cc12', 'µM', 7.8);

Now examine the next entry.
Return reported IC50; argument: `CCC(C)(C)C[C@H]1N[C@@H](C(=O)NCC[C@H](O)CO)[C@H](c2cccc(Cl)c2)[C@@]12C(=O)Nc1cc(Cl)c(F)cc12` 19.5

Data origin: patent US9079913B2
